Hey, just so you know, these numbers are from paper PMC3083694.

Target: Calf DNA polymerase α (Bos taurus, UniProt A0AAA9TD94)
Construct: made in house
Sequence (A0AAA9TD94 1-1441): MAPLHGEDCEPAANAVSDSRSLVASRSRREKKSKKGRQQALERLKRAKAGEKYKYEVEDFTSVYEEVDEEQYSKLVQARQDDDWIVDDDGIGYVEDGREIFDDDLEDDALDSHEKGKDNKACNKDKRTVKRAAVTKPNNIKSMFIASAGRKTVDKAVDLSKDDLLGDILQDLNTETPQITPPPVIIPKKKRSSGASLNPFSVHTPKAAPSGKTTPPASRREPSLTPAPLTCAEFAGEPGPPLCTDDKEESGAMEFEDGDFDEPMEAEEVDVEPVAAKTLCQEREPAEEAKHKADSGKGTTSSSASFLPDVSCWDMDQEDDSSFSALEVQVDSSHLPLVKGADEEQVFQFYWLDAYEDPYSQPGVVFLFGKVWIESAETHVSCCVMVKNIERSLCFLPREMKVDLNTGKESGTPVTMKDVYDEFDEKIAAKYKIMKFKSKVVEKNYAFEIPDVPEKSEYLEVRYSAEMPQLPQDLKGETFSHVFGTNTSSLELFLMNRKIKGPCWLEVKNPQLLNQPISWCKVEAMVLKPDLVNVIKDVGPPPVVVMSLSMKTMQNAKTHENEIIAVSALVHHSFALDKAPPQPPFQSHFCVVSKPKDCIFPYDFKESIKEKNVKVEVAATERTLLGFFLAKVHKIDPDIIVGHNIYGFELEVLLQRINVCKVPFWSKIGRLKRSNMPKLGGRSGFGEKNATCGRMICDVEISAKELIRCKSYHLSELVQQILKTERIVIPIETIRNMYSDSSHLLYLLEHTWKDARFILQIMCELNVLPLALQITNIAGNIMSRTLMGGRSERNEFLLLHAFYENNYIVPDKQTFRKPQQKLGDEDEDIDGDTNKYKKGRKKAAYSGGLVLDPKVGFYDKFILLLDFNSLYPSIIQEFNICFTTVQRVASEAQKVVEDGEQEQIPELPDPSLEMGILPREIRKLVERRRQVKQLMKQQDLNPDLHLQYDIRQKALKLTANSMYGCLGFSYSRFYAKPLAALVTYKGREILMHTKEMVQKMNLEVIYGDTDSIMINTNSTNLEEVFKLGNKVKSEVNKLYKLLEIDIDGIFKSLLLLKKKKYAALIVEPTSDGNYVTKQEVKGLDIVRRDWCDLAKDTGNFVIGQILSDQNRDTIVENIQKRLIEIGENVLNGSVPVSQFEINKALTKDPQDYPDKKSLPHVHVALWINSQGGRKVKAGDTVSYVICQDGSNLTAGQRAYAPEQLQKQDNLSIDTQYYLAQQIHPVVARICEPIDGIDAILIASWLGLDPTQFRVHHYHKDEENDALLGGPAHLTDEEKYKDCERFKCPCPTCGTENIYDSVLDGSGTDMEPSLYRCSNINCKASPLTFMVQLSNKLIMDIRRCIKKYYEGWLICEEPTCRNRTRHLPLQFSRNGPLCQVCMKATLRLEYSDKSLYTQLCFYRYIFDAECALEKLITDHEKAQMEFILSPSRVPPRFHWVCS
Experiment: DNA polymerase activity assay, calf pol α
Type: biochemical
Conditions: 50 μM of each compound; Figure 2
experimentalReadout: Inhibitory effect on calf pol α activity

# compound, endpointResult
data = [
    ("CC(C)=CCC1=C(C)C(=O)c2ccccc2C1=O [MK-1]", "inhibited the activity"),
    ("CC(C)=CCC/C(C)=C/CC1=C(C)C(=O)c2ccccc2C1=O [MK-2]", "inhibited the activity"),
    ("CC(C)=CCC/C(C)=C/CC/C(C)=C/CC1=C(C)C(=O)c2ccccc2C1=O [MK-3]", "inhibited the activity"),
]
